# ASSAY DETAILS: soluble on expression in E. coli; label from the status in PepcDB or PDB records
RECORDED METRIC: soluble on expression in E. coli

1. MGSDKIHHHHHHMSQPLLSLPIDVLNIISKAMPTTLFQQLATQCTEVSFLNTGISNVNIKLSCEDGDKVLRVNQPHSNWCDRSLEVECWQAAIVANIAPVLIWVSDDKQVYLSEFIHQPETDWSIFASMRSHLSLGQSTNQSISAVDAVPLLSALFCKLSTLPVPNKSITVTEQWQQYAYQLDSLTESQIDPQWHDAWQQLLRLNGLVRHWLSQLEACVLLPTFCHRDLTPHNLLLSGRAPHQLFCIDYEYAVASHPLFDLASVVASHKLSTIQVNQLIDNVIMQYCQAASLTDVAAAKAALPAAINCFWLFSAMWALLMAAKEPQKVTQYLQYFTYYLTLITC : not soluble
2. LRSVFVSGFPRGVDSAQLSEYFLAFGPVASVVMDKDKGVFAIVEMGDVGAREAVLSQSQHSLGGHRLRVRPREQKEFQSPASKSPKG : soluble
3. MSVSNKLGDLASKVYENVLLEEVKKYPRPRHIGIITDGNRRYARNVGISENEGHVKGKEKVEEVVDWCMELDIRIVTFYAFSTENFRRSPEEVDFLFHLIDNAFKSLLKDERVYKNRINVKVIGNLSILPAYLRQTIHIVEETTKNFNNYQLNLAIGYGGREEILDAIKRITRDAMDGKLNIDELDEEKFRMYLYDGRIPDPDLILRTSGEERISNFLLWQSAYSELYFSDVYWPEFSKLDFLRAIYSYQRRQRRFGR : soluble
4. MSLAAPTLTGGKLTVGIQGTHAELGVLLYPGVQMAAVHGLSDLFEVANRIAGEQPQAQLPRLRVSHWQASGELPPVRVHDSLAEAPGALLAVLIPPSLAGFSSHQSSAALMDWLRQQHAAGATLGGVCVGSILLAESGLLDGRSATTHWTSAQAFAERYPQVRLEADKPIVDDGDLITSAGLMAWAELGLRLVNRLLGPSIASATARFLVMEHSASASQCGSNFAPILSHGDGAILKLQHWLQANGAVDVSLPVMAQQAGLEPRTLLRRFRAATGLKPTQYCQHLRVGKARELLEFTNGSIDHIAWTVGYQDPATFRSLFRKITGLAPSEYRNRFGATSTAASREGHHHHHH : soluble
5. TMSHGFGVMAGINLTKNIGVQAEVNYYQINQKYADGNLNRDLTINYFNIPVLLSLNTNKAAPVNLNLVAGPQFGINAGSKFETSGNGNTDSTTAVVALRKGDVGVAYGAGLEFALNKSHSVRLDLGFRGFYGLVNMDSSTNGQGTYNVIVSASRKTYGGYAGITWMF : not soluble
6. MSLIRDMQLSRFSIPFAAPIRVGGQELNKRDGLLVAVRDDQGHTGWGEAAPLPGLDTISLDQCQGELCPIRKAFADQALNWDSFSLTAPMMGLCPEIPGLNPISAFGVESALAWLGLCSGQWGIAGADELGIAVNGLFVPSPDPDRLPAQAKQLKASGFSTVKIKIGRMDSDDEIRQILELDSLFNHKLALRLDANRSLDFAQYQSYFEALKHLNIEYVEEPLKPEYDFFEAAQIPWPLALDESLESYANLDEPFPKSLGAVILKPGSFQGVHGMAQAMEHLHTQGIKTVLSSSFNNTMGMSMLGLLANLYAPETAHGLDTLKYFQPSDLSLGLSIAKGRMAIPVDLFGGGLNLASGLMEEIAEGHHHHHH : soluble
